- assayedTarget: Human recombinant PDE3A (hPDE3A) (Homo sapiens)
- Construct: purchased Scottish Biomedical; host or cells: Sf9 insect cells
- Sequence (Q14432 whole entry): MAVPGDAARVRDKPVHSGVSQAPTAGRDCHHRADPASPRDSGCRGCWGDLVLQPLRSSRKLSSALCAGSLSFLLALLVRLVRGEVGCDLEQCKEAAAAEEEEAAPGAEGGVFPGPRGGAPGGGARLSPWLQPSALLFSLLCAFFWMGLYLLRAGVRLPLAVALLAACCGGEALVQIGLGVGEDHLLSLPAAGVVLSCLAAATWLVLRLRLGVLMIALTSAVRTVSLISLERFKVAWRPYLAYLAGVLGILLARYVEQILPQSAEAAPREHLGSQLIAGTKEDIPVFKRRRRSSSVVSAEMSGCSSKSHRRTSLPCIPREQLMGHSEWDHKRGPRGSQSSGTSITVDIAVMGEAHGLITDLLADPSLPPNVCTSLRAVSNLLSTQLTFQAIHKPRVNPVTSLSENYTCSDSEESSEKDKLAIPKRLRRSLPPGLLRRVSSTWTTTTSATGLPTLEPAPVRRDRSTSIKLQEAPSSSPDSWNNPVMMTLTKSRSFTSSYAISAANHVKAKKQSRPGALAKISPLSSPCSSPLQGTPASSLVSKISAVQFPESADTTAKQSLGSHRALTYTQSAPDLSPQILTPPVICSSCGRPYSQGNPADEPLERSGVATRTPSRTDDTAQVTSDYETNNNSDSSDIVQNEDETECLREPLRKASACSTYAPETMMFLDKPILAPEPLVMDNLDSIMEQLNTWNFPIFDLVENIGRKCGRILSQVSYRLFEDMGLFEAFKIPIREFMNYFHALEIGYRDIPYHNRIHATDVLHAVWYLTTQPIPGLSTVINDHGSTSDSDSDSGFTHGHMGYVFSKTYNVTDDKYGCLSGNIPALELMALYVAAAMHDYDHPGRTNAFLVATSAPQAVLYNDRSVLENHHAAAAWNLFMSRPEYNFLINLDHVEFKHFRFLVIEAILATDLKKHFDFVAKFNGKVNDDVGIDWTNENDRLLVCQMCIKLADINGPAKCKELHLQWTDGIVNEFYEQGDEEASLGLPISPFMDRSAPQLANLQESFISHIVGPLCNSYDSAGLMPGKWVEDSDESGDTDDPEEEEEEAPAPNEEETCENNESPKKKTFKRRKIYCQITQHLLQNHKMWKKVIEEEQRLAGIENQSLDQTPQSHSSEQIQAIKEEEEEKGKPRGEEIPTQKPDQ
- testMethodNotes: In vitro assay PDE3A (SPA, 3H-cAMP hydrolysis);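 note: the method names PDE3A and the table heading PDE3B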
- Type: biochemical
- conditionSet: read-out: hPDE3B Emax; read-out: Emax
Categories are defined by ranges of Emax, namely interval 1: < 40%; interval 2: ≥ 40% and < 70%; interval 3: ≥ 70%

Into which category would you place O=C(c1cn2ccsc2n1)N1[C@H]2CC[C@H](c3cc(C(F)F)nc4ncnn34)[C@@H]1CC2 ? interval 2

Into which category would you place C[C@@H]1CCN(C(=O)c2cc(Cl)cnc2C(F)(F)F)C[C@H]1c1cc(C(F)F)nc2ncnn12 ? interval 1

Into which category would you place C[C@]1(c2cc(C(F)F)nc3ncnn23)CCCN(C(=O)c2ccc3nccn3c2)C1 (single isomer, unassigned) ? interval 1

Into which category would you place C[C@@H]1CCN(C(=O)c2ccc(C#N)cn2)C[C@H]1c1cc(C(F)F)nc2ncnn12 ? interval 1

Into which category would you place COc1ccc(C(=O)N2[C@H]3CC[C@H](c4cc(C(F)F)nc5ncnn45)[C@@H]2CC3)cc1OC ? interval 3

Into which category would you place Cc1ccc(C(=O)N2CC[C@@H](C)[C@H](c3cc(C(F)F)nc4ncnn34)C2)c(C)n1 ? interval 2

Into which category would you place C[C@@H]1CCN(C(=O)c2cnc3c(F)cccc3c2)C[C@H]1c1cc(C(F)F)nc2ncnn12 ? interval 3

Into which category would you place Cc1cc(C(=O)N2[C@H]3CC[C@H](c4cc(C(F)F)nc5ncnn45)[C@@H]2CC3)cc(OC(F)F)n1 ? interval 3

Into which category would you place Cc1cc(C(=O)N2CC[C@@H](C)[C@](F)(c3cc(C(F)F)nc4ncnn34)C2)cc(C)n1 ? interval 1

Into which category would you place COc1cccc2c1OCC(C(=O)N1[C@H]3CC[C@H](c4cc(C(F)F)nc5ncnn45)[C@@H]1CC3)=C2 ? interval 3

Into which category would you place COc1c(F)cc(C(=O)N2CC[C@@H](C)[C@H](c3cc(C(F)F)nc4ncnn34)C2)cc1F ? interval 3

Into which category would you place C[C@@H]1CCN(C(=O)c2ccc3c(ccn3CCF)c2)C[C@H]1c1cc(C(F)F)nc2ncnn12 ? interval 3

Into which category would you place Cc1cc([C@@H]2CN(C(=O)c3cc(Cl)ncc3C)CC[C@H]2C)n2ncnc2n1 ? interval 2

Into which category would you place O=C(c1cc(OC(F)F)cc(C2CC2)c1)N1[C@H]2CC[C@H](c3cc(C(F)F)nc4ncnn34)[C@@H]1CC2 ? interval 3

Into which category would you place Cc1nc2ccncc2cc1C(=O)N1CC[C@@H](C)[C@H](c2cc(C(F)F)nc3ncnn23)C1 ? interval 1

Into which category would you place C[C@@H]1CCN(C(=O)c2ccno2)C[C@H]1c1cc(C(F)F)nc2ncnn12 ? interval 1

Into which category would you place C[C@@H]1CCN(C(=O)c2c[nH]c3ccc(F)cc23)C[C@H]1c1cc(C(F)F)nc2ncnn12 ? interval 3

Into which category would you place Cc1c(C(=O)N2CC[C@@H](C)[C@H](c3cc(C(F)F)nc4ncnn34)C2)sc2ccccc12 ? interval 3

Into which category would you place COc1ccc(C(C)(C)C)cc1C(=O)N1CC[C@@H](C)[C@H](c2cc(C(F)F)nc3ncnn23)C1 ? interval 1

Into which category would you place Cc1cc(C(=O)N2C3CCC2[C@@H](c2cc(C(F)F)nc4ncnn24)CC3)cc(C2CC2)n1 (some centres unmarked) ? interval 1

Into which category would you place Cc1csc(C(=O)N2CC[C@@H](C)[C@H](c3cc(C(F)F)nc4ncnn34)C2)c1 ? interval 2

Into which category would you place Cc1cc(C(=O)N2CC[C@@H](C)[C@H](c3cc(C(F)F)nc4ncnn34)C2)cnc1C ? interval 2

Into which category would you place Cc1nc(C(=O)N2CC[C@@H](C)[C@H](c3cc(C(F)F)nc4ncnn34)C2)c(C)o1 ? interval 1

Into which category would you place COc1cc(C(=O)N2CC[C@@H](C)[C@H](c3cc(C(F)F)nc4ncnn34)C2)c(C)cn1 ? interval 2

Origin of values: patent US10947242B2
